molecular target: CFTR (Homo sapiens, UniProt P13569, DEL508-508); construct: endogenous in cells; host or cells: primary human bronchial epithelial cells from CF subjects (F508del/MF-HBE), differentiated at air-liquid interface; test: HBE assay: Ussing chamber assay of CFTR-mediated short-circuit currents; type: cell-based; conditions: Table 12; read-out: HBE EC50
Sequence (P13569 with tags, fused parts or gaps DEL508-508): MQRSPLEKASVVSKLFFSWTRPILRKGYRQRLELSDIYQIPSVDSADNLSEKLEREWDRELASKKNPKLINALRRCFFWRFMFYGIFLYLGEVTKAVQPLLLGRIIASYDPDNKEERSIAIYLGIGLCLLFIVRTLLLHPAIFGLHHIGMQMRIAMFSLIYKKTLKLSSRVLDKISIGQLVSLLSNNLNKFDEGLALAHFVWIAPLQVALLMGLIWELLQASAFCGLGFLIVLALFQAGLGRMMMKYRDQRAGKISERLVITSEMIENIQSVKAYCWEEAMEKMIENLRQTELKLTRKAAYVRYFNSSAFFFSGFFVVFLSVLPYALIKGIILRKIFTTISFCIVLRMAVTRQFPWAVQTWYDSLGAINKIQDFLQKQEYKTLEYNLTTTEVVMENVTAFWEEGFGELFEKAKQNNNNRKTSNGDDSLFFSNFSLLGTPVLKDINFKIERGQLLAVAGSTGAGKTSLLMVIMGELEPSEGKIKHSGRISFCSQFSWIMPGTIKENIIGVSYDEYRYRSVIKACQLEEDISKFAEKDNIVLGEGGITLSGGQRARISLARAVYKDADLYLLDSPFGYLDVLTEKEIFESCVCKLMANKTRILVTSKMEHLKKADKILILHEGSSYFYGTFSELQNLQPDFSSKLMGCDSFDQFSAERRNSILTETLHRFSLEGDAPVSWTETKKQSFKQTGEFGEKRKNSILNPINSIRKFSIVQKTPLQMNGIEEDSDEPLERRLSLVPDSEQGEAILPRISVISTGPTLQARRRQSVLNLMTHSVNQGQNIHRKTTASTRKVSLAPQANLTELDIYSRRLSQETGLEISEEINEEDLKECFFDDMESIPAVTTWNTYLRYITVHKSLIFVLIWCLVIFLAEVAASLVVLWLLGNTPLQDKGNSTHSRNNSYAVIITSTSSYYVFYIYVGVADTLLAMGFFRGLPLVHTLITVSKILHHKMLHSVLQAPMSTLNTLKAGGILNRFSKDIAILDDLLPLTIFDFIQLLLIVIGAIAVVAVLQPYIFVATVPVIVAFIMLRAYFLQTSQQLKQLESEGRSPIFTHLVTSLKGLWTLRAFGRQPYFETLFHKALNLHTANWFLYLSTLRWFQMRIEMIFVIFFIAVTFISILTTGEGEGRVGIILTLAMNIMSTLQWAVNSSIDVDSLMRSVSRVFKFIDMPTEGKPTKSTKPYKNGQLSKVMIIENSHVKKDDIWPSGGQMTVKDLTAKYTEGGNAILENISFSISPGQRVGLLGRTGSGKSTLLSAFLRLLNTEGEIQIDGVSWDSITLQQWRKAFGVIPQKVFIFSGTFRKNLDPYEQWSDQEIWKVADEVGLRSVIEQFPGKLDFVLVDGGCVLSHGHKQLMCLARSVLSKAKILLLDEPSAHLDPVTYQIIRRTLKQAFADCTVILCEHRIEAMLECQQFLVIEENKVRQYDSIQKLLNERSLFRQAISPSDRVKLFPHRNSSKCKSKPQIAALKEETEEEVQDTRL
pEC50: −log10 of the molar value.
measured property: pEC50

See these solved cases before continuing.
{"molecular string": "Cc1cccc(C)c1-c1cc2nc(n1)NS(=O)(=O)c1cccc(c1)C(=O)N(Cc1ncc(OC3CCCC3)cn1)[C@H](CC(C)(C)C)CO2", "pEC50": "> 6.00"}
{"molecular string": "Cc1cccc(C)c1-c1cc2nc(n1)NS(=O)(=O)c1cccc(c1)C(=O)N(Cc1ncc(N3CC[C@@](C)(O)C3)cn1)[C@H](CC(C)(C)C)CO2", "pEC50": "> 6.00"}
{"molecular string": "Cc1cccc(C)c1-c1cc2nc(n1)NS(=O)(=O)c1cccc(c1)C(=O)N(Cc1cccc(N3CCC[C@H]3C)n1)[C@H](CC(C)C)CO2", "pEC50": "> 6.00"}
{"molecular string": "Cc1cccc(C)c1-c1cc2nc(n1)NS(=O)(=O)c1cccc(c1)C(=O)N(Cc1ccc(N3CCC(C)(C)C3)nn1)[C@H](CC(C)(C)C)CO2", "pEC50": "> 6.00"}
{"molecular string": "Cc1cnc(CN2C(=O)c3cccc(c3)S(=O)(=O)Nc3nc(cc(-c4c(C)cccc4C)n3)OC[C@H]2CC(C)(C)C)nc1N(C)CC(C)(C)C", "pEC50": "> 6.00"}

Prompt line: Query: pEC50; subject: Cc1cccc(C)c1-c1cc2nc(n1)NS(=O)(=O)c1cccc(c1)C(=O)N(Cc1cccc(N(C)C3CC4(CC4)C3)n1)[C@H](CC(C)(C)C)CO2
Response line: > 6.00

Where do the numbers come from? From patent US20240150377A1.
